Origin of the recorded values: patent US7041785B1

- EXPERIMENTAL SYSTEM: B2 receptor (Oryctolagus cuniculus, UniProt Q28642)
- Sequence (Q28642 whole entry): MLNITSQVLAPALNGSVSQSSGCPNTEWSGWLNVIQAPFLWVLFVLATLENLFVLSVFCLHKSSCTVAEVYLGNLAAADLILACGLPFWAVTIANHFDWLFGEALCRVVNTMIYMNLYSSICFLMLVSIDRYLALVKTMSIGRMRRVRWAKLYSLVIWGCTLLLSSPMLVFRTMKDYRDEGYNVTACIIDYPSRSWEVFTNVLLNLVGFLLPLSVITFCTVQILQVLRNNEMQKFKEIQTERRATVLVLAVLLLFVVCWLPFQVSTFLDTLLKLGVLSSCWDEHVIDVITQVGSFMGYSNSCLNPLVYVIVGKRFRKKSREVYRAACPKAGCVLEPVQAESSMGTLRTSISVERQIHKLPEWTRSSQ
- METHOD: cell-based
- MEASUREMENT PARAMETERS: residual agonistic activity at 10 μg/mL in comparison with BK
- Protocol: Tissues were taken from New Zealand white rabbits (1.5–2.5 kg) and Dunken Hartley guinea pigs (250–350 g) of either sex, killed by stunning and exsanguination. […] Changes of tension produced by the various agents were measured with Grass isometric transducers (model FT 03C, Grass Instrument Co., Quincy, Mass.). […] Before testing the drugs, the tissues were allowed to equilibrate for 60–120 min during which time the tissues were repeatedly washed and the tension readjusted every 15 min. […]
Non-standard residues stand in square brackets, D forms with d. Residues, ends and D or L forms follow the SMILES beside them. d2Nal = N[C@H](Cc1ccc2ccccc2c1)C(=O)O; NMeA = CN[C@@H](C)C(=O)O
Provide the recorded Rb.J.V. α^E for the entries that follow.

Reference set (2 entries):
COMPOUND: CC[C@H](C)[C@H](NC(=O)[C@@H](Cc1ccc2ccccc2c1)NC(=O)[C@H](CO)NC(=O)[C@H](Cc1ccccc1)NC(=O)CNC(=O)[C@@H]1CCCN1C(=O)[C@@H]1CCCN1C(=O)[C@H](CCCNC(=N)N)NC(=O)[C@H](CCCCN)NC(C)=O)C(=O)O [Compound 19, AcLys(D-βNal^7, Ile^8)desArg^9BK] (Ac-KRPPGFS[d2Nal]I-OH; C-terminus assumed)
EXPERIMENTAL SYSTEM: B2 receptor (Oryctolagus cuniculus, UniProt Q28642)
Rb.J.V. α^E: 0.09
//
COMPOUND: CC[C@H](C)[C@H](NC(=O)[C@@H](Cc1ccc2ccccc2c1)NC(=O)[C@H](C)N(C)C(=O)[C@H](Cc1ccccc1)NC(=O)CNC(=O)[C@@H]1CCCN1C(=O)[C@@H]1CCCN1C(=O)[C@H](CCCNC(=N)N)NC(=O)[C@H](CCCCN)NC(C)=O)C(=O)O [Compound 22] (Ac-KRPPGF[NMeA][d2Nal]I-OH; C-terminus assumed)
EXPERIMENTAL SYSTEM: B2 receptor (Oryctolagus cuniculus, UniProt Q28642)
Rb.J.V. α^E: 0.03

query: Param readout= Rb.J.V. α^E; system= B2 receptor (Oryctolagus cuniculus, UniProt Q28642); entry= CC(=O)N[C@@H](CCCCN)C(=O)N[C@@H](CCCNC(=N)N)C(=O)N1CCC[C@H]1C(=O)N1CCC[C@H]1C(=O)NCC(=O)N[C@@H](Cc1ccccc1)C(=O)N(C)[C@@H](C)C(=O)N1CCC[C@H]1C(=O)N[C@@H](CC(C)C)C(=O)O [Compound 21, AcLys(N-MeAla^6, Leu^8)desArg^9BK, reference compound] (Ac-KRPPGF[NMeA]PL-OH; C-terminus assumed) ; returns value.
result: 0

---

- EXPERIMENTAL SYSTEM: human B2 receptor (Homo sapiens)
- Construct: Helical strips of HUV were prepared according to Gobeil et al; from tissue; host or cells: human umbilical vein helical strips
- Sequence (P30411 whole entry): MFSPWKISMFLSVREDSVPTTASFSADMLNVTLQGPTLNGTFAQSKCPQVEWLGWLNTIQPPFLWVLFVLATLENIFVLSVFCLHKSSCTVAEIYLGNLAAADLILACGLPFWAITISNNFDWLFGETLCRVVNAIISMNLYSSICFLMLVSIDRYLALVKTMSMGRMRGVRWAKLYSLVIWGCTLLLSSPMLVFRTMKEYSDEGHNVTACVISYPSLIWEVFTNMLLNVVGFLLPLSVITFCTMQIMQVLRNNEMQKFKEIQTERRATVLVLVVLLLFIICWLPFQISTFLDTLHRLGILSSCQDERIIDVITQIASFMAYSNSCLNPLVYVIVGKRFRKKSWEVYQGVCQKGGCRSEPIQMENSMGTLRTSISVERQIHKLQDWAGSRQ
- METHOD: Human umbilical vein bioassay in presence of Lys(Leu8)desArg9BK, B2 receptor
- Type: cell-based
- MEASUREMENT PARAMETERS: vs BK, Lys(Leu8)desArg9BK 1 μmol/L present
Non-standard residues stand in square brackets, D forms with d. Residues, ends and D or L forms follow the SMILES beside them. Tyr(3,5-I2) = N[C@@H](Cc1cc(I)c(O)c(I)c1)C(=O)O; 2Nal = N[C@@H](Cc1ccc2ccccc2c1)C(=O)O; d2Nal = N[C@H](Cc1ccc2ccccc2c1)C(=O)O; Ahx = NCCCCCC(=O)O; Sar = CNCC(=O)O

COMPOUND: CC[C@H](C)[C@H](NC(=O)[C@H](Cc1ccc2ccccc2c1)NC(=O)[C@H](CO)NC(=O)[C@H](Cc1ccccc1)NC(=O)CNC(=O)[C@@H]1CCCN1C(=O)[C@@H]1CCCN1C(=O)[C@H](CCCNC(=N)N)NC(=O)[C@H](CCCCN)NC(C)=O)C(=O)O [Compound 20, AcLys(L-βNal^7, Ile^8)desArg^9BK] (Ac-KRPPGFS[2Nal]I-OH; C-terminus assumed)
Human umbilical vein B2 receptor pA2: Inactive
--
COMPOUND: CC[C@H](C)[C@H](NC(=O)[C@@H](Cc1ccc2ccccc2c1)NC(=O)[C@H](CO)NC(=O)[C@H](Cc1ccccc1)NC(=O)CNC(=O)[C@@H]1CCCN1C(=O)[C@@H]1CCCN1C(=O)[C@H](CCCNC(=N)N)NC(=O)[C@H](CCCCN)NC(=O)CCCCCNC(=O)[C@H](Cc1cc(I)c(O)c(I)c1)NC(=O)CNC)C(=O)O [Compound 30] (H-[Sar][Tyr(3,5-I2)][Ahx]KRPPGFS[d2Nal]I-OH; N-terminus and C-terminus assumed)
Human umbilical vein B2 receptor pA2: Inactive

---

- EXPERIMENTAL SYSTEM: B2 receptor (Cavia porcellus, UniProt O70526)
- METHOD: cell-based
- MEASUREMENT PARAMETERS: vs BK; Inactive = no detectable antagonistic effect at ≦ 10 μg/ml; F.ag. full agonist; P.ag. partial agonist
Non-standard residues stand in square brackets, D forms with d. Residues, ends and D or L forms follow the SMILES beside them. Tyr(3,5-I2) = N[C@@H](Cc1cc(I)c(O)c(I)c1)C(=O)O; d2Nal = N[C@H](Cc1ccc2ccccc2c1)C(=O)O; dTic = O=C(O)[C@H]1Cc2ccccc2CN1; Ahx = NCCCCCC(=O)O; Sar = CNCC(=O)O

MOLECULE: CNCC(=O)N[C@@H](Cc1ccc(O)cc1)C(=O)NCCCCCC(=O)N[C@@H](CCCCN)C(=O)N[C@@H](CCCNC(=N)N)C(=O)N1CCC[C@H]1C(=O)N1CCC[C@H]1C(=O)NCC(=O)N[C@@H](Cc1ccccc1)C(=O)N[C@@H](CO)C(=O)N1CCC[C@H]1C(=O)N[C@@H](CC(C)C)C(=O)O
G.P.I. pA2: Inactive

MOLECULE: CC(C)C[C@H](NC(=O)[C@H]1Cc2ccccc2CN1C(=O)[C@H](CO)NC(=O)[C@H](Cc1ccccc1)NC(=O)CNC(=O)[C@@H]1CCCN1C(=O)[C@@H]1CCCN1C(=O)[C@H](CCCNC(=N)N)NC(=O)[C@H](N)CCCNC(=N)N)C(=O)O [Compound 12, D-Arg(D-Tic^7, Leu^8)desArg^9BK] (H-[dR]RPPGFS[dTic]L-OH; N-terminus and C-terminus assumed)
G.P.I. pA2: Inactive

MOLECULE: CC[C@H](C)[C@H](NC(=O)[C@@H](Cc1ccc2ccccc2c1)NC(=O)[C@H](CO)NC(=O)[C@H](Cc1ccccc1)NC(=O)CNC(=O)[C@@H]1CCCN1C(=O)[C@@H]1CCCN1C(=O)[C@H](CCCNC(=N)N)NC(=O)[C@H](CCCCN)NC(=O)CCCCCNC(=O)[C@H](Cc1cc(I)c(O)c(I)c1)NC(=O)CNC)C(=O)O [Compound 30] (H-[Sar][Tyr(3,5-I2)][Ahx]KRPPGFS[d2Nal]I-OH; N-terminus and C-terminus assumed)
G.P.I. pA2: Inactive

---

- EXPERIMENTAL SYSTEM: B2 receptor (Cavia porcellus, UniProt O70526)
- Sequence (O70526 1-372): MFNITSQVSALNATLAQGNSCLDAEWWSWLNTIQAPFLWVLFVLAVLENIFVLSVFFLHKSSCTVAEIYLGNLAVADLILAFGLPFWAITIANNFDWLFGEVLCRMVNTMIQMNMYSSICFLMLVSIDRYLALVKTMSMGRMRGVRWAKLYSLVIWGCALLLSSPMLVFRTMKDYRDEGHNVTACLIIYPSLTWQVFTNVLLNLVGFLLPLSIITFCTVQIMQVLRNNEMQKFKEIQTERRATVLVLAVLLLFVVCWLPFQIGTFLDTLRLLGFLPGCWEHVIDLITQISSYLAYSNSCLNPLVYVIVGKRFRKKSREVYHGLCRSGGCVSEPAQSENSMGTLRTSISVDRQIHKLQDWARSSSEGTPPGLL
- METHOD: cell-based
- MEASUREMENT PARAMETERS: vs BK; Inactive = no detectable antagonistic effect at ≦ 10 μg/ml; F.ag. full agonist; P.ag. partial agonist
Non-standard residues stand in square brackets, D forms with d. Residues, ends and D or L forms follow the SMILES beside them. d2Nal = N[C@H](Cc1ccc2ccccc2c1)C(=O)O; dTic = O=C(O)[C@H]1Cc2ccccc2CN1; NMeA = CN[C@@H](C)C(=O)O; Sar = CNCC(=O)O
MEASURED ATTRIBUTE: G.P.I. pA2

Here are 6 compounds together with their reported answers.
COMPOUND: CC[C@H](C)[C@H](NC(=O)[C@@H](Cc1ccc2ccccc2c1)NC(=O)[C@H](C)N(C)C(=O)[C@H](Cc1ccccc1)NC(=O)CNC(=O)[C@@H]1CCCN1C(=O)[C@@H]1CCCN1C(=O)[C@H](CCCNC(=N)N)NC(=O)[C@H](CCCCN)NC(C)=O)C(=O)O [Compound 22] (Ac-KRPPGF[NMeA][d2Nal]I-OH; C-terminus assumed)
VALUE REPORTED: P.ag.

COMPOUND: CC(C)C[C@H](NC(=O)[C@@H]1CCCN1C(=O)[C@H](CO)NC(=O)[C@H](Cc1ccccc1)NC(=O)CNC(=O)[C@@H]1CCCN1C(=O)[C@@H]1CCCN1C(=O)[C@@H](N)CCCNC(=N)N)C(=O)O [Compound 1, (Leu^8)desArg^9BK, reference compound]
VALUE REPORTED: Inactive

COMPOUND: CC(=O)N[C@@H](Cc1ccc(O)cc1)C(=O)NCCCCCC(=O)N[C@@H](CCCCN)C(=O)N[C@@H](CCCNC(=N)N)C(=O)N1CCC[C@H]1C(=O)N1CCC[C@H]1C(=O)NCC(=O)N[C@@H](Cc1ccccc1)C(=O)N[C@@H](CO)C(=O)N1CCC[C@H]1C(=O)N[C@@H](CC(C)C)C(=O)O
VALUE REPORTED: P.ag.

COMPOUND: CC(=O)N[C@@H](CCCCN)C(=O)N[C@@H](CCCNC(=N)N)C(=O)N1CCC[C@H]1C(=O)N1CCC[C@H]1C(=O)NCC(=O)N[C@@H](Cc1ccccc1)C(=O)N(C)[C@@H](C)C(=O)N1CCC[C@H]1C(=O)N[C@@H](CC(C)C)C(=O)O [Compound 21, AcLys(N-MeAla^6, Leu^8)desArg^9BK, reference compound] (Ac-KRPPGF[NMeA]PL-OH; C-terminus assumed)
VALUE REPORTED: Inactive

COMPOUND: CC[C@H](C)[C@H](NC(=O)[C@H]1Cc2ccccc2CN1C(=O)[C@H](CO)NC(=O)[C@H](Cc1ccccc1)NC(=O)CNC(=O)[C@@H]1CCCN1C(=O)[C@@H]1CCCN1C(=O)[C@H](CCCNC(=N)N)NC(=O)[C@H](N)CCCNC(=N)N)C(=O)O [Compound 13, D-Arg(D-Tic^7, Ile^8)desArg^9BK] (H-[dR]RPPGFS[dTic]I-OH; N-terminus and C-terminus assumed)
VALUE REPORTED: Inactive

COMPOUND: CC[C@H](C)[C@H](NC(=O)[C@@H](Cc1ccc2ccccc2c1)NC(=O)[C@H](CO)NC(=O)[C@H](Cc1ccccc1)NC(=O)CNC(=O)[C@@H]1CCCN1C(=O)[C@@H]1CCCN1C(=O)[C@H](CCCNC(=N)N)NC(=O)[C@H](CCCCN)NC(C)=O)C(=O)O [Compound 19, AcLys(D-βNal^7, Ile^8)desArg^9BK] (Ac-KRPPGFS[d2Nal]I-OH; C-terminus assumed)
VALUE REPORTED: P.ag.

Moving on to the next compound.
query: Bench note: what G.P.I. pA2 did CNCC(=O)N[C@@H](CCCNC(=N)N)C(=O)N1CCC[C@H]1C(=O)N1CCC[C@H]1C(=O)NCC(=O)N[C@@H](Cc1ccccc1)C(=O)N[C@@H](CO)C(=O)N1Cc2ccccc2C[C@@H]1C(=O)N[C@@H](CC(C)C)C(=O)O [Compound 9, Sar(D-Tic^7, Leu^8)desArg^9BK] (H-[Sar]RPPGFS[dTic]L-OH; N-terminus and C-terminus assumed) show?
result: Inactive
